Target: CDK2 (Homo sapiens)
Construct: endogenous in cells; host or cells: MDA-MB-231
Experiment: CDK protein degradation activity (Western blotting), CDK2
Assay type: cell-based
Conditions: MDA-MB-231 cells, 10 μM, 16 hours, Western blot
outcomeMeasure: Enzyme degradation CDK2 (% remaining) @ 10 μM (%)

molecule	quantitativeReadout
O=C1CC[C@H](N2C(=O)c3ccc(N4CCC(CN5CCC(CNc6ncnc7c6ncn7[C@H]6C[C@@H](NC(=O)c7c(Cl)cccc7Cl)C6)CC5)CC4)cc3C2=O)C(=O)N1	50

[1] CC(=O)NC1CC(n2cnc3c(NCC4CCN(CC5CCN(c6cccc7c6C(=O)N([C@H]6CCC(=O)NC6=O)C7=O)CC5)CC4)ncnc32)C1 (some centres unmarked)
[2] O=C1CC[C@H](N2C(=O)c3cc(F)c(N4CCC(CN5CCC(CCNc6ncnc7c6ncn7[C@H]6C[C@@H](NC(=O)c7c(Cl)cccc7Cl)C6)CC5)CC4)cc3C2=O)C(=O)N1
Could you tell me which of 1 and 2 has the lower Enzyme degradation CDK2 (% remaining) @ 10 μM reading? Kindly give the label for the entry you pick.
2

* * *

Biological target: CDK9 (Homo sapiens, UniProt P50750)
Construct: endogenous in cells; host or cells: MDA-MB-231
Sequence (P50750 whole entry): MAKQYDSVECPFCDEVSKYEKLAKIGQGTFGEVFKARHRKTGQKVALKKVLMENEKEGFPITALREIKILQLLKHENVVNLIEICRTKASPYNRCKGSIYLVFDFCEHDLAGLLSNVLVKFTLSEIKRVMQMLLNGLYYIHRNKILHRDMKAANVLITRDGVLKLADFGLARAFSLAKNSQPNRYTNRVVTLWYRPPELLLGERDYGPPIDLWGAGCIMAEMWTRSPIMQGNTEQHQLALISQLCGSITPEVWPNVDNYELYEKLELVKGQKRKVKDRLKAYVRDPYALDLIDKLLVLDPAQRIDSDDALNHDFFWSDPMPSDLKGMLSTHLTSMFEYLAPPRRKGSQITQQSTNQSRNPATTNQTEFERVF
Assay: CDK protein degradation activity (Western blotting), CDK9
Assay type: cell-based
Details: MDA-MB-231 cells, 1 μM, 16 hours, Western blot
outcomeMeasure: Enzyme degradation CDK9 (% remaining) @ 1 μM (%)

compound	systemTested	unitsSymbol	quantitativeReadout
Cc1cccc(C(=O)NC2CC(n3cnc4c(NCCC5CCN(CC6CCN(C(=O)COc7cccc8c7C(=O)N([C@H]7CCC(=O)NC7=O)C8=O)CC6)CC5)ncnc43)C2)n1 (stereo partly shown)	CDK9 (Homo sapiens, UniProt P50750)	%	0
Cc1cccc(C(=O)N[C@H]2C[C@@H](n3cnc4c(NC5CCN(CCC6CCN(c7cccc8c7C(=O)N([C@H]7CCC(=O)CC7=O)C8=O)CC6)CC5)ncnc43)C2)n1	CDK9 (Homo sapiens, UniProt P50750)	%	10
Cc1cccc(C(=O)NC2CC(n3cnc4c(NCCC5CCN(CC6CCN(C(=O)C7CCN(c8ccc9c(c8)C(=O)N([C@H]8CCC(=O)NC8=O)C9=O)CC7)CC6)CC5)ncnc43)C2)n1 (stereo partly shown)	CDK9 (Homo sapiens, UniProt P50750)	%	0

[1] Cc1cccc(C(=O)N[C@H]2C[C@@H](n3cnc4c(NCCC5CCN(CC6CCN(C(=O)CCNc7ccc8c(c7)C(=O)N([C@H]7CCC(=O)NC7=O)C8=O)CC6)CC5)ncnc43)C2)n1 (racemic)
[2] O=C1CC[C@H](N2C(=O)c3ccc(N4CC(CN5CCC(CCN6CCN(c7ccc(Nc8ncnc9c8ncn9[C@H]8C[C@@H](NC(=O)Cc9ccccc9)C8)cc7)CC6)CC5)C4)cc3C2=O)C(=O)N1
Quick check, higher Enzyme degradation CDK9 (% remaining) @ 1 μM between 1 and 2 ? Kindly give the label for the entry you pick.
2

* * *

Molecular target: CDK2 (Homo sapiens)
Construct: endogenous in cells; host or cells: MDA-MB-231
Assay: CDK protein degradation activity (Western blotting), CDK2
Assay type: cell-based
Details: MDA-MB-231 cells, 0.1 μM, 16 hours, Western blot
outcomeMeasure: Enzyme degradation CDK2 (% remaining) @ 0.1 μM (%)

Known Enzyme degradation CDK2 (% remaining) @ 0.1 μM results, listed for orientation:
compound	unitsSymbol	quantitativeReadout
Cc1cccc(C(=O)NC2CC(n3cnc4c(Nc5ccc(N6CCN(CC7CCN(c8ccc9nnn([C@H]%10CCC(=O)NC%10=O)c(=O)c9c8)CC7)CC6)cc5C)ncnc43)C2)n1 (some centres unmarked)	%	10
O=C1CC[C@H](n2nnc3ccc(N4CCC(CN5CCC(CCNc6ncnc7c6ncn7C6CC(NC(=O)Cc7ccccc7)C6)CC5)CC4)cc3c2=O)C(=O)N1 (some centres unmarked)	%	30

[A] O=C1CC[C@H](N2C(=O)c3cc(F)c(N4CCN(CC5CCN(c6ccc(Nc7ncnc8c7ncn8C7CC(NC(=O)c8c(Cl)cccc8Cl)C7)cc6)CC5)CC4)cc3C2=O)C(=O)N1 (some centres unmarked)
[B] Cc1cccc(C(=O)NC2CC(n3cnc4c(Nc5ccc(N6CCN(CCC7CCN(C(=O)C8CCN(c9cc%10c(cc9F)C(=O)N([C@H]9CCC(=O)NC9=O)C%10=O)CC8)CC7)CC6)cc5)ncnc43)C2)n1 (some centres unmarked)
Could you tell me which of A and B has the lower Enzyme degradation CDK2 (% remaining) @ 0.1 μM reading? Kindly give the label for the entry you pick.
A
(A: 30%, B: 50%)

* * *

Biological target: CDK9 (Homo sapiens)
Construct: endogenous in cells; host or cells: MDA-MB-231
Assay: CDK protein degradation activity (Western blotting), CDK9
Format: cell-based
Details: MDA-MB-231 cells, 1 μM, 16 hours, Western blot
Property: Enzyme degradation CDK9 (% remaining) @ 1 μM; scope: individual compounds

compound	systemTested	result
Cc1cccc(C(=O)NC2CC(n3cnc4c(Nc5ccc(N6CCN(CCC7CCN(C(=O)C8CCN(c9cc%10c(cc9F)C(=O)N([C@H]9CCC(=O)NC9=O)C%10=O)CC8)CC7)CC6)cc5)ncnc43)C2)n1 (some centres unmarked) [Compound 449]	CDK9 (Homo sapiens)	10/10/10%
O=C1CC[C@H](N2C(=O)c3cc(F)c(N4CCN(CC5CCN(c6ccc(Nc7ncnc8c7ncn8C7CC(NC(=O)c8c(Cl)cccc8Cl)C7)cc6)CC5)CC4)cc3C2=O)C(=O)N1 (some centres unmarked) [Compound 301]	CDK9 (Homo sapiens)	0%
Cc1cccc(C(=O)N[C@H]2C[C@@H](n3cnc4c(NC5CCN(CCOC6CCN(C(=O)CNc7ccc8c(c7)C(=O)N(C7CCC(=O)NC7=O)C8=O)CC6)CC5)ncnc43)C2)n1 (some centres unmarked) [Compound 45]	CDK9 (Homo sapiens)	0/0/0%
Cc1cccc(C(=O)NC2CC(n3cnc4c(NCCC5CCN(CC6CCN(C(=O)CNc7cccc8c7C(=O)N([C@H]7CCC(=O)NC7=O)C8=O)CC6)CC5)ncnc43)C2)n1 (some centres unmarked) [Compound 123]	CDK9 (Homo sapiens)	0/0/0%

Now take the following compound into account.
Param item: Cc1cccc(C(=O)N[C@H]2C[C@@H](n3cnc4c(Nc5ccc(N6CCN(CC7CCN(c8ccc9c(c8)C(=O)N([C@H]8CCC(=O)NC8=O)C9=O)CC7)CC6)cc5)ncnc43)C2)n1 [Compound 88] ; param system: CDK9 (Homo sapiens); output Enzyme degradation CDK9 (% remaining) @ 1 μM: 0/0/0%

* * *

Target: CDK2 (Homo sapiens)
Construct: endogenous in cells; host or cells: MDA-MB-231
Assay: CDK protein degradation activity (Western blotting), CDK2
Assay type: cell-based
Conditions: MDA-MB-231 cells, 0.1 μM, 16 hours, Western blot
outcomeMeasure: Enzyme degradation CDK2 (% remaining) @ 0.1 μM (%)

Known Enzyme degradation CDK2 (% remaining) @ 0.1 μM results, listed for orientation:
compound	systemTested	quantitativeReadout
O=C1CC[C@H](N2C(=O)c3ccc(NCC(=O)N4CCC5(CC4)CC(N4CCC(c6ccc(Nc7ncnc8c7ncn8[C@H]7C[C@@H](NC(=O)Cc8ccccc8)C7)cc6)CC4)C5)cc3C2=O)C(=O)N1 (racemic)	CDK2 (Homo sapiens)	20
O=C1CC[C@H](n2nnc3ccc(N4CCN(C5CCN(c6ccc(Nc7ncnc8c7ncn8C7CC(NC(=O)Cc8ccccc8)C7)cc6)CC5)CC4)cc3c2=O)C(=O)N1 (stereo partly shown)	CDK2 (Homo sapiens)	70
O=C1CC[C@H](N2C(=O)c3ccc(NCC(=O)N4CCC(CN5CCN(c6ccc(Nc7ncnc8c7ncn8C7CC(NC(=O)Cc8ccccc8)C7)cc6)CC5)CC4)cc3C2=O)C(=O)N1 (stereo partly shown)	CDK2 (Homo sapiens)	50

[A] O=C1CC[C@H](N2C(=O)c3ccc(NCC(=O)N4CCN(CCCN5CCN(c6ccc(Nc7ncnc8c7ncn8C7CC(NC(=O)Cc8ccccc8)C7)cc6)CC5)CC4)cc3C2=O)C(=O)N1 (stereo partly shown)
[B] Cc1cccc(C(=O)N[C@H]2C[C@@H](n3cnc4c(Nc5ccc(N6CCN(C7CC8(CCN(c9ccc%10nnn([C@H]%11CCC(=O)NC%11=O)c(=O)c%10c9)CC8)C7)CC6)cc5)ncnc43)C2)n1
Could you tell me which of A and B has the lower Enzyme degradation CDK2 (% remaining) @ 0.1 μM reading? Kindly give the label for the entry you pick.
B

* * *

Target: CDK2 (Homo sapiens, UniProt P24941)
Construct: endogenous in cells; host or cells: MDA-MB-231
Experiment: CDK protein degradation activity (Western blotting), CDK2
Type: cell-based
Conditions: MDA-MB-231 cells, 0.1 μM, 16 hours, Western blot
outcomeMeasure: Enzyme degradation CDK2 (% remaining) @ 0.1 μM (%)

molecule	quantitativeReadout
O=C1CC[C@H](N2C(=O)C=C(Nc3cccc(CC(=O)N4CCC5(CC4)CC(N4CCN(c6ccc(Nc7ncnc8c7ncn8[C@H]7C[C@@H](NC(=O)Cc8ccccc8)C7)cc6)CC4)C5)c3)C2=O)C(=O)N1 [Compound 192]	70

[a] Cc1cccc(C(=O)N[C@H]2C[C@@H](n3cnc4c(NC5CCN(CCOC6CCN(C(=O)COc7ccc8c(c7)C(=O)N([C@H]7CCC(=O)NC7=O)C8=O)CC6)CC5)ncnc43)C2)n1 [Compound 43]
[b] O=C1CC[C@H](N2C(=O)c3cccc(OCC(=O)N4CCC5(CC(N6CCN(c7ccc(Nc8ncnc9c8ncn9[C@H]8C[C@@H](NC(=O)Cc9ccccc9)C8)cc7)CC6)C5)C4)c3C2=O)C(=O)N1 (some centres unmarked) [Compound 264]
Could you tell me which of a and b has the lower Enzyme degradation CDK2 (% remaining) @ 0.1 μM reading? Kindly give the label for the entry you pick.
b
